Where do these numbers come from? They come from paper PMC7881012.

Reported Experimental helical content% values follow for various substances
experiment: Helical content by circular dichroism; format: physicochemical; conditions: 60 µM peptide, 50 mM sodium phosphate buffer pH 7.4, 25 °C, DichroWeb CDSSTR deconvolution
Ends that are not written are not given here.
Your answer should be a plain number; it is taken to be in %.

substance	unitText	valueReported
H-SALEEQLKTFLDKFLHELEDLLYQLALAL-NH2 [P6]	%	80
SALEEQLKTFLDKFMHELEDLLYQLAL-NH2 [P8]	%	70
Ac-SALEEQLKTFLDKFLHELEDLLYQLAL-NH2 [P4]	%	70
H-AHLFSYLTTKEEQDNDAIFLQEFSKES-NH2 [P1scr, reference compound]	%	8
H-SALEEQLKTFLDKFLHELEDLLYQLSL-NH2 [P2]	%	70
H-SALEEQLKTFLDKFLHELEDPLYQLAL-NH2 [P5]	%	17

[ask] // Input: H-SALEEQLKTFLDKFLHELEDLLYQLAL-NH2 [P3] . Output its Experimental helical content% only.
[reply] 64
